Values from PubChem BioAssay

assay_details: suppressors of polyglutamine aggregation in yeast, 75Q-TubH (AID 1616)
experimental_conditions: S. cerevisiae 75Q-TubH polyglutamine aggregation suppression; stronger effect = higher value

# compound, aggregation suppression score
data = [
    ("CCc1cccc2c3c([nH]c12)C(CC)(CC(=O)O)OCC3 (configuration not stated)", 0.918),
    ("COc1ccccc1OCC(O)COC(N)=O (configuration not stated)", 1.52),
    ("CCN(Cc1ccncc1)C(=O)C(CO)c1ccccc1 (configuration not stated)", 1.36),
    ("NCc1ccc(S(N)(=O)=O)cc1", 1.05),
    ("CCN(CC)CCNC(=O)c1ccc(N)cc1", 1.03),
    ("CCN(CC)CCOC(=O)c1ccc(N)cc1", 1.46),
    ("CN(C)CCOC(C)(c1ccccc1)c1ccccn1 (configuration not stated)", 1.46),
    ("CN1CCN(CCCN2c3ccccc3Sc3ccc(C(F)(F)F)cc32)CC1", 1.63),
    ("c1ccc2[nH]c(-c3cscn3)nc2c1", 0.142),
    ("Cn1c(=O)c2[nH]cnc2n(C)c1=O", 0.779),
    ("CN[C@@H]1[C@H](O)[C@H](NC)[C@H]2O[C@@]3(O)C(=O)C[C@@H](C)O[C@H]3O[C@@H]2[C@H]1O", 1.46),
    ("NS(=O)(=O)c1cc2c(cc1C(F)(F)F)NC(Cc1ccccc1)NS2(=O)=O (configuration not stated)", 1.15),
    ("CNCCCC12CCC(c3ccccc31)c1ccccc12", 1.14),
    ("CC(=O)Nc1nnc(S(N)(=O)=O)s1", 1.12),
    ("CCCNC(=O)NS(=O)(=O)c1ccc(Cl)cc1", 1.38),
    ("CCC1(c2ccccc2)C(=O)NCNC1=O", 1.22),
    ("CN(C)CCN(Cc1ccccc1)c1ccccn1", 1.09),
    ("CC(C)(C)NCC(O)c1cc(O)cc(O)c1 (configuration not stated)", 1.5),
    ("CS(=O)(=O)OCCCCOS(C)(=O)=O", 1.4),
    ("Cc1noc(NS(=O)(=O)c2ccc(N)cc2)c1C", 1.13),
    ("NS(=O)(=O)c1cc2c(cc1C(F)(F)F)NCNS2(=O)=O", 1.31),
    ("CN(C)CCCN1c2ccccc2Sc2ccc(Cl)cc21", 1.25),
    ("CCCSc1ccc2nc(NC(=O)OC)[nH]c2c1", 0.174),
    ("c1ccc(CC2=NCCN2)cc1", 1.3),
    ("NC(=O)N1c2ccccc2C=Cc2ccccc21", 1.82),
    ("NS(=O)(=O)c1cc2c(cc1Cl)NC=NS2(=O)=O", 1.42),
    ("Clc1ccc2c(c1)C(N1CCNCC1)=Nc1ccccc1O2", 1.13),
]
